This collection of values is drawn from ChEMBL document CHEMBL1255199.

# test-protocol: Passive transcellular permeability of the compound at pH 4 by PAMPA
# Format: ADME
# test-parameters: read-out: permeability
reported-endpoint: Papp (nm/s)

[[record]]
cpd_smiles = "COc1cc2[nH]c(C)c(Cc3ccccc3)c(=O)c2cc1Cl"
result_units = "nm/s"
experimental_result = 5750

[[record]]
cpd_smiles = "Cc1[nH]c2ccc(Br)cc2c(=O)c1Br"
result_units = "nm/s"
experimental_result = 1330

[[record]]
cpd_smiles = "Cc1[nH]c2cccc(Cl)c2c(=O)c1Cc1ccccc1"
result_units = "nm/s"
experimental_result = 2440

[[record]]
cpd_smiles = "Cc1[nH]c2ccc(Cl)cc2c(=O)c1Cc1ccccc1"
result_units = "nm/s"
experimental_result = 4220

[[record]]
cpd_smiles = "Cc1ccc2[nH]c(C)c(Br)c(=O)c2c1"
result_units = "nm/s"
experimental_result = 264

[[record]]
cpd_smiles = "Cc1[nH]c2ccc(Cl)cc2c(=O)c1-c1ccccc1"
result_units = "nm/s"
experimental_result = 1110

[[record]]
cpd_smiles = "Cc1[nH]c2cccc(Cl)c2c(=O)c1-c1ccccc1"
result_units = "nm/s"
experimental_result = 910

[[record]]
cpd_smiles = "COc1ccc2c(=O)c(Cc3ccccc3)c(C)n(C)c2c1"
result_units = "nm/s"
experimental_result = 4320

[[record]]
cpd_smiles = "Cc1[nH]c2ccccc2c(=O)c1/C=C/C(=O)OC(C)(C)C"
result_units = "nm/s"
experimental_result = 1050

[[record]]
cpd_smiles = "Cc1cc(=O)c2ccccc2[nH]1"
result_units = "nm/s"
experimental_result = 15.6

[[record]]
cpd_smiles = "COc1cc2[nH]c(C)c(CC(C)C)c(=O)c2cc1Cl"
result_units = "nm/s"
experimental_result = 4960

[[record]]
cpd_smiles = "CCCCC/C=C/c1c(C)[nH]c2cc(OC)c(Cl)cc2c1=O"
result_units = "nm/s"
experimental_result = 2800


###

# test-protocol: physchem
# test-parameters: aqueous, pH 7.4
# Description: Aqueous solubility of the compound at pH 7.4 by HPLC analysis
reported-endpoint: solubility (µM)

[[record]]
cpd_smiles = "Cc1[nH]c2ccc(Cl)c(Cl)c2c(=O)c1-c1ccccc1"
result_units = "µM"
relation_operator = "<"
experimental_result = 2

[[record]]
cpd_smiles = "COc1ccc2c(c1)c(=O)c(Cc1ccccc1)c(C)n2C"
result_units = "µM"
relation_operator = "="
experimental_result = 10

[[record]]
cpd_smiles = "COc1ccc2[nH]c(C)c(Cc3ccccc3)c(=O)c2c1"
result_units = "µM"
relation_operator = "="
experimental_result = 2

[[record]]
cpd_smiles = "CCc1c(C)[nH]c2cc(OC)c(Cl)cc2c1=O"
result_units = "µM"
relation_operator = "="
experimental_result = 10

[[record]]
cpd_smiles = "CCCCCC/C=C\\Cc1c(C)[nH]c2ccccc2c1=O"
result_units = "µM"
relation_operator = "<"
experimental_result = 2

[[record]]
cpd_smiles = "Cc1[nH]c2ccc(Cl)cc2c(=O)c1Br"
result_units = "µM"
relation_operator = "="
experimental_result = 5


###

# System: Plasmodium falciparum
# test-protocol: Antimalarial activity against chloroquine, mefloquine, pyrimethamine and atovaquone-resistant Plasmodium falciparum TM90-C2B infected in human A+ erythrocytes after 72 hrs by SYBR Green I assay
# Format: functional, organism-based
# strict inequality: EC50 < 1 µM yields criterion met, everything else yields criterion not met

[[record]]
cpd_smiles = "CCCCC/C=C/c1c(C)[nH]c2cc(OC)c(Cl)cc2c1=O"
category_label = "criterion met"

[[record]]
cpd_smiles = "Cc1[nH]c2ccc(Cl)cc2c(=O)c1Br"
category_label = "criterion met"

[[record]]
cpd_smiles = "COc1cccc2[nH]c(C)c(-c3ccccc3)c(=O)c12"
category_label = "criterion not met"

[[record]]
cpd_smiles = "CCc1c(C)[nH]c2cc(OC)c(Br)cc2c1=O"
category_label = "criterion met"

[[record]]
cpd_smiles = "Cc1[nH]c2ccccc2c(=O)c1/C=C/c1ccc(O)cc1"
category_label = "criterion not met"

[[record]]
cpd_smiles = "COc1ccc2c(=O)c(Cc3ccccc3)c(C)[nH]c2c1"
category_label = "criterion not met"


###

# test-protocol: in vitro
# test-parameters: mouse, J774 cells
# Description: Cytotoxicity index, ratio of EC50 for mice (Mus musculus) J774 cells to EC50 for chloroquine, mefloquine, pyrimethamine and atovaquone-resistant Plasmodium falciparum TM90-C2B
Quick reference for selectivity ratio among some compounds
reported-endpoint: selectivity ratio

[[record]]
cpd_smiles = "CCCCC#Cc1c(C)[nH]c2cc(OC)c(Cl)cc2c1=O"
reported_endpoint = "selectivity ratio"
experimental_result = 3.6

[[record]]
cpd_smiles = "COc1ccc2[nH]c(C)c(Cc3ccccc3)c(=O)c2c1"
reported_endpoint = "selectivity ratio"
experimental_result = "> 1"

[[record]]
cpd_smiles = "Cc1[nH]c2cc(Cl)cc(Cl)c2c(=O)c1-c1ccccc1"
reported_endpoint = "selectivity ratio"
experimental_result = "> 9.5"

[[record]]
cpd_smiles = "Cc1[nH]c2ccccc2c(=O)c1/C=C/c1ccc(O)cc1"
reported_endpoint = "selectivity ratio"
experimental_result = "> 4"

[[record]]
cpd_smiles = "Cc1[nH]c2ccccc2c(=O)c1/C=C/c1cccc([N+](=O)[O-])c1"
reported_endpoint = "selectivity ratio"
experimental_result = "> 21.9"

[[record]]
cpd_smiles = "CCCCC#Cc1c(C)[nH]c2ccc(Cl)cc2c1=O"
reported_endpoint = "selectivity ratio"
experimental_result = "> 0.84"

[[record]]
cpd_smiles = "Cc1[nH]c2c(Cl)cccc2c(=O)c1-c1ccccc1"
reported_endpoint = "selectivity ratio"
experimental_result = "> 4"

[[record]]
cpd_smiles = "Cc1[nH]c2c(Cl)cc(Cl)cc2c(=O)c1-c1ccccc1"
reported_endpoint = "selectivity ratio"
experimental_result = "> 4"

[[record]]
cpd_smiles = "COc1ccc2c(=O)c(-c3ccccc3)c(C)[nH]c2c1"
reported_endpoint = "selectivity ratio"
experimental_result = "> 140"

[[record]]
cpd_smiles = "C=C(CCCCC)c1c(C)[nH]c2cc(OC)c(Cl)cc2c1=O"
reported_endpoint = "selectivity ratio"
experimental_result = 1280

[[record]]
cpd_smiles = "COc1cc2[nH]c(C)c(C3CCCCC3)c(=O)c2cc1Cl"
reported_endpoint = "selectivity ratio"
experimental_result = "> 82.3"

[[record]]
cpd_smiles = "COc1ccc2c(=O)cc(C)[nH]c2c1"
reported_endpoint = "selectivity ratio"
experimental_result = "> 4.2"

[[record]]
cpd_smiles = "Cc1[nH]c2ccc(Cl)cc2c(=O)c1Br"
reported_endpoint = "selectivity ratio"
experimental_result = 172

[[record]]
cpd_smiles = "Cc1[nH]c2ccc(F)cc2c(=O)c1Br"
reported_endpoint = "selectivity ratio"
experimental_result = "> 313"

[[record]]
cpd_smiles = "COc1cc2[nH]c(C)c(-c3ccccc3)c(=O)c2cc1Cl"
reported_endpoint = "selectivity ratio"
experimental_result = "> 2170"

[[record]]
cpd_smiles = "COc1cc2[nH]c(C)c(/C=C/C(=O)OC(C)(C)C)c(=O)c2cc1Cl"
reported_endpoint = "selectivity ratio"
experimental_result = "> 533"

[[record]]
cpd_smiles = "CCc1c(C)[nH]c2cc(OC)c(F)cc2c1=O"
reported_endpoint = "selectivity ratio"
experimental_result = 58.3

[[record]]
cpd_smiles = "Cc1[nH]c2ccccc2c(=O)c1Cc1ccccc1"
reported_endpoint = "selectivity ratio"
experimental_result = "> 6.5"

[[record]]
cpd_smiles = "COc1cccc2[nH]c(C)c(Cc3ccccc3)c(=O)c12"
reported_endpoint = "selectivity ratio"
experimental_result = 5.33

[[record]]
cpd_smiles = "Cc1[nH]c2ccccc2c(=O)c1/C=C/C(=O)OC(C)(C)C"
reported_endpoint = "selectivity ratio"
experimental_result = "> 4.8"

[[record]]
cpd_smiles = "COc1cc2[nH]c(C)cc(=O)c2cc1Cl"
reported_endpoint = "selectivity ratio"
experimental_result = "> 24.1"

[[record]]
cpd_smiles = "COc1cccc2[nH]c(C)c(-c3ccccc3)c(=O)c12"
reported_endpoint = "selectivity ratio"
experimental_result = "> 7.4"

[[record]]
cpd_smiles = "COc1cccc2c(=O)c(-c3ccccc3)c(C)[nH]c12"
reported_endpoint = "selectivity ratio"
experimental_result = "> 22.6"

[[record]]
cpd_smiles = "Cc1[nH]c2ccc(Cl)cc2c(=O)c1Cc1ccccc1"
reported_endpoint = "selectivity ratio"
experimental_result = "> 10.7"

[[record]]
cpd_smiles = "Cc1[nH]c2cc(Cl)ccc2c(=O)c1Cc1ccccc1"
reported_endpoint = "selectivity ratio"
experimental_result = "> 2.2"

[[record]]
cpd_smiles = "Cc1[nH]c2cccc(Cl)c2c(=O)c1-c1ccccc1"
reported_endpoint = "selectivity ratio"
experimental_result = "> 7.8"

[[record]]
cpd_smiles = "Cc1[nH]c2ccccc2c(=O)c1Br"
reported_endpoint = "selectivity ratio"
experimental_result = "> 542"

[[record]]
cpd_smiles = "COc1cc2[nH]c(C)c(-c3ccccc3)c(=O)c2cc1Br"
reported_endpoint = "selectivity ratio"
experimental_result = "> 1160"

[[record]]
cpd_smiles = "CCCCCCCc1c(C)[nH]c2cc(OC)c(Cl)cc2c1=O"
reported_endpoint = "selectivity ratio"
experimental_result = "> 10500"

[[record]]
cpd_smiles = "Cc1[nH]c2ccc(Br)cc2c(=O)c1Br"
reported_endpoint = "selectivity ratio"
experimental_result = "> 92.9"

[[record]]
cpd_smiles = "Cc1[nH]c2ccc(Cl)c(Cl)c2c(=O)c1-c1ccccc1"
reported_endpoint = "selectivity ratio"
experimental_result = "> 10.2"

[[record]]
cpd_smiles = "Cc1[nH]c2cccc(Cl)c2c(=O)c1Cc1ccccc1"
reported_endpoint = "selectivity ratio"
experimental_result = "> 6.7"

[[record]]
cpd_smiles = "CCCCC/C=C/c1c(C)[nH]c2cc(OC)c(Cl)cc2c1=O"
reported_endpoint = "selectivity ratio"
experimental_result = "> 2950"

[[record]]
cpd_smiles = "CCCCCCCc1c(C)nc2cc(OC)ccc2c1O"
reported_endpoint = "selectivity ratio"
experimental_result = "> 747"

[[record]]
cpd_smiles = "CCc1c(C)[nH]c2cc(OC)c(Cl)cc2c1=O"
reported_endpoint = "selectivity ratio"
experimental_result = 689

[[record]]
cpd_smiles = "CCCCC#Cc1c(C)[nH]c2ccc(OC)cc2c1=O"
reported_endpoint = "selectivity ratio"
experimental_result = "> 4"

[[record]]
cpd_smiles = "COc1cc2[nH]c(C)c(C)c(=O)c2cc1Cl"
reported_endpoint = "selectivity ratio"
experimental_result = 449

[[record]]
cpd_smiles = "CCCCCCCCCc1c(C)[nH]c2cc(OC)c(Cl)cc2c1=O"
reported_endpoint = "selectivity ratio"
experimental_result = "> 18000"

[[record]]
cpd_smiles = "CCCCC#Cc1c(C)[nH]c2ccc(F)cc2c1=O"
reported_endpoint = "selectivity ratio"
experimental_result = "> 4"

[[record]]
cpd_smiles = "Cc1[nH]c2cc(Cl)ccc2c(=O)c1-c1ccccc1"
reported_endpoint = "selectivity ratio"
experimental_result = "> 19.9"

[[record]]
cpd_smiles = "CCCCCCCc1c(C)nc2ccccc2c1O"
reported_endpoint = "selectivity ratio"
experimental_result = 48.3

[[record]]
cpd_smiles = "Cc1[nH]c2ccc(Cl)cc2c(=O)c1-c1ccccc1"
reported_endpoint = "selectivity ratio"
experimental_result = "> 47.7"

[[record]]
cpd_smiles = "COc1cc2[nH]c(C)c(-c3ccccc3)c(=O)c2cc1F"
reported_endpoint = "selectivity ratio"
experimental_result = "> 425"

[[record]]
cpd_smiles = "CCCCCCCCCc1c(C)[nH]c2ccccc2c1=O"
reported_endpoint = "selectivity ratio"
experimental_result = 69.9

[[record]]
cpd_smiles = "Cc1[nH]c2ccccc2c(=O)c1/C=C/c1ccccc1"
reported_endpoint = "selectivity ratio"
experimental_result = "> 4"

[[record]]
cpd_smiles = "COc1ccc2[nH]c(C)c(-c3ccccc3)c(=O)c2c1"
reported_endpoint = "selectivity ratio"
experimental_result = "> 4"

[[record]]
cpd_smiles = "CCc1c(C)[nH]c2cc(OC)c(Br)cc2c1=O"
reported_endpoint = "selectivity ratio"
experimental_result = "> 933"

[[record]]
cpd_smiles = "COc1cc2[nH]c(C)c(C(C)C)c(=O)c2cc1Cl"
reported_endpoint = "selectivity ratio"
experimental_result = 112

[[record]]
cpd_smiles = "Cc1[nH]c2ccccc2c(=O)c1-c1ccccc1"
reported_endpoint = "selectivity ratio"
experimental_result = "> 79.1"

[[record]]
cpd_smiles = "COc1ccc2c(=O)c(Cc3ccccc3)c(C)[nH]c2c1"
reported_endpoint = "selectivity ratio"
experimental_result = "> 25.9"

[[record]]
cpd_smiles = "Cc1[nH]c2c(Cl)cccc2c(=O)c1Cc1ccccc1"
reported_endpoint = "selectivity ratio"
experimental_result = "> 4"

